System: GB4
Assay: qHTS profiling for inhibitors of Plasmodium falciparum proliferation (AID 504749); also: nearly all actives have a fitted effect of over 60% in size
Details: P. falciparum in erythrocytes, SYBR Green DNA, 72 h; series mostly up to 28.7 µM
Records with an inconclusive call do not appear. Active and inactive are the calls of the source. Calls follow the shape of the dose curve; as a rule, active = well fitted inhibition curve with a large enough effect; inconclusive = small, poorly fitted or top-dose-only effect; inactive = flat fitted curve, though single readings scatter.
Labels: 1 (yes) for active, 0 (no) for inactive

                                    molecule  answer_label
 0   CCC(C(N)=O)N1CCCC1=O (stereo not drawn)        0 (no)
 1    Cn1c(CCCC(=O)O)nc2cc(N(CCCl)CCCl)ccc21        0 (no)
 2  Fc1ccc(C(OCCN2CCN(CCCc3ccccc3)CC2)c2ccc(F)cc2)cc1       1 (yes)
 3  CC[C@@H](CO)NC(=O)[C@@H]1C=C2c3cccc4[nH]cc(c34)C[C@H]2N(C)C1        0 (no)
 4      NCC(O)c1ccc(O)cc1 (stereo not drawn)        0 (no)
 5                NP(N)(=O)NC(=O)c1ccc(F)cc1        0 (no)
 6            CCCC1CCCCN1 (stereo not drawn)        0 (no)
 7       CN1C(=S)CN=C(c2ccccc2)c2cc(Cl)ccc21        0 (no)
 8           Cc1ncc(CNC(=O)N(CCCl)N=O)c(N)n1        0 (no)
 9  CC(=O)[C@H]1CC[C@H]2[C@@H]3CC[C@H]4C[C@H](O)CC[C@]4(C)[C@H]3C(=O)C[C@]12C        0 (no)
10       O=[N+]([O-])c1cc([As](=O)(O)O)ccc1O       1 (yes)
11                          CC[N+](CC)(CC)CC        0 (no)
12  NCC(CC(=O)O)c1ccc(Cl)cc1 (stereo not drawn)        0 (no)
13          CCOP(=S)(OCC)Oc1cc(C)nc(C(C)C)n1        0 (no)
14     N[C@@H](Cc1ccc(N(CCCl)CCCl)cc1)C(=O)O       1 (yes)
15                           Oc1cccc2cccnc12        0 (no)
16                              OCCOc1ccccc1        0 (no)
17     CCN(CC)CCOC(=O)C(O)(c1ccccc1)c1ccccc1        0 (no)
